# test.details: qHTS RealTime-Glo MT Cell Viability Assay in HEK293 cells - 16 hour (AID 1224872); note: nearly all actives have a fitted effect of over 50% in size
# stated.conditions: RealTime-Glo luminescence; series mostly up to 76.8 µM
Inconclusive results are not listed. Calls of active or inactive are those of the source. Calls come from the whole dose curve; as a rule, active = well fitted cell-killing curve with a large enough effect in the repeat runs; inconclusive = weak or mixed curves, or effect the other way; inactive = flat fitted curve, though single readings scatter.
Permitted responses: t for active, f for inactive

structure.smiles	label.value
C[Si](NC1CCCCC1)(NC1CCCCC1)NC1CCCCC1	f
CC[C@H](NC(=O)c1cc(F)ccc1NS(=O)(=O)c1cccc2cccnc12)c1ccccc1	f
CCCOc1ccc(S(=O)(=O)N2CCN(CC)CC2)cc1-c1nc2c(CC)n(Cc3ccccn3)nc2c(=O)[nH]1	f
Cc1ccc(Nc2nccc(N(C)c3ccc4c(C)n(C)nc4c3)n2)cc1S(N)(=O)=O	t
CCCCCCCCCCCC[N+](C)(C)CCCS(=O)(=O)[O-]	f

Query: What call does the record list for `COc1ccccc1N=Nc1c(S(=O)(=O)O)cc2cc(S(=O)(=O)O)cc(NC(C)=O)c2c1O` ?
Result: f
